Source of measurements: patent US8247211B2

Give MIC Enterococcus avium (GC 4558) for every item shown.
Test system: Enterococcus sp.
Assay: In vitro antibacterial evaluation: minimum inhibitory concentration (MIC), broth dilution method
Assay type: cell-based
Details: Enterococcus avium (GC 4558)
Output spec: scalar in µg/mL, unitless text.

For the molecule shown here, CC(c1ccccc1)C1NC(=O)CNC(=O)C(CO)NC(=O)C(C(O)C2CNC(=N)N2C2OC(CO)C(O)C(O)C2O)NC(=O)C(C(O)C2CNC(=N)N2)NC(=O)C(Cc2ccc(OC3OC(CO)C(OC4OC(CO)C(O)C(O)C4O)C(O)C3O)cc2N)NC1=O (stereo not shown) [Example 287] , give the reported MIC Enterococcus avium (GC 4558).
64

Could you do the same for CC(C)CC(=O)OC1C(O)C(CO)OC(OC2C(CO)OC(Oc3ccc(CC4NC(=O)C(C(C)c5cccc(F)c5)NC(=O)CNC(=O)C(CO)NC(=O)C(C(O)C5CNC(=N)N5C5OC(CO)C(O)C(O)C5O)NC(=O)C(C(O)C5CNC(=N)N5)NC4=O)cc3)C(O)C2O)C1O (stereo not shown) [Example 264b] , please?
64

Could you do the same for CC(C)CCC(=O)OC1C(OC2C(CO)OC(Oc3ccc(CC4NC(=O)C(C(C)c5ccccc5)NC(=O)CNC(=O)C(CO)NC(=O)C(C(O)C5CNC(=N)N5C5OC(CO)C(O)C(O)C5O)NC(=O)C(C(O)C5CNC(=N)N5)NC4=O)cc3)C(O)C2O)OC(CO)C(O)C1O (stereo not shown) [Example 270a] , please?
16

Could you do the same for CC(c1ccccc1)C1NC(=O)CNC(=O)C(CO)NC(=O)C(C(O)C2CNC(=N)N2C2OC(CO)C(O)C(O)C2O)NC(=O)C(C(O)C2CNC(=N)N2)NC(=O)C(Cc2ccc(OC3OC(CO)C(OC4OC(COC(=O)NCc5ccccc5)C(O)C(O)C4O)C(O)C3O)cc2)NC1=O (stereo not shown) [Example 257b] , please?
0.5

---

Test system: Escherichia coli
Test: In vitro antibacterial evaluation: minimum inhibitory concentration (MIC), broth dilution method
Assay type: cell-based
Details: broth dilution, 18 hours at 35° C.
Give MIC Escherichia coli (GC 4560) for every item shown.
Output spec: scalar in µg/mL, unitless text.

For the compound shown here, CC(c1ccccc1)C1NC(=O)CNC(=O)C(CO)NC(=O)C(C(O)C2CNC(=N)N2C2OC(CO)C(O)C(O)C2O)NC(=O)C(C(O)C2CNC(=N)N2)NC(=O)C(Cc2ccc3oc(-c4cccc([N+](=O)[O-])c4)nc3c2)NC1=O (stereo not shown) , give the reported MIC Escherichia coli (GC 4560).
16

Could you do the same for CC(c1ccccc1)C1NC(=O)CNC(=O)C(CO)NC(=O)C(C(O)C2CNC(=N)N2C2OC(CO)C(O)C(O)C2O)NC(=O)C(C(O)C2CNC(=N)N2)NC(=O)C(Cc2ccc3oc(-c4cccc(F)c4)nc3c2)NC1=O (stereo not shown) , please?
8

Could you do the same for CC(c1ccccc1)C1NC(=O)CNC(=O)C(CO)NC(=O)C(C(O)C2CNC(=N)N2C2OC(CO)C(O)C(O)C2O)NC(=O)C(C(O)C2CNC(=N)N2)NC(=O)C(Cc2ccc3oc(-c4ccc(OCc5ccccc5)cc4)nc3c2)NC1=O (stereo not shown) , please?
32

Could you do the same for CC(c1ccccc1)C1NC(=O)CNC(=O)C(CO)NC(=O)C(CC2CNC(=N)N2C2OC(CO)C(O)C(O)C2O)NC(=O)C(CC2CNC(=N)N2)NC(=O)C(Cc2ccc3oc(-c4ccc5c(c4)Cc4ccccc4-5)nc3c2)NC1=O (stereo not shown) , please?
1

---

Tested on: Enterococcus sp.
Assay: In vitro antibacterial evaluation: minimum inhibitory concentration (MIC), broth dilution method
Format: cell-based
Settings: Enterococcus faecalis (ATCC 29212); broth dilution, 18 hours at 35° C.
Give MIC Enterococcus faecalis (ATCC 29212) for every item shown.
Output spec: scalar in µg/mL, unitless text.

For the molecule shown here, COc1cc(-c2nc3cc(CC4NC(=O)C(C(C)c5ccccc5)NC(=O)CNC(=O)C(CO)NC(=O)C(C(O)C5CNC(=N)N5C5OC(CO)C(O)C(O)C5O)NC(=O)C(C(O)C5CNC(=N)N5)NC4=O)ccc3o2)cc(OC)c1OC (centres unmarked) [Example 34] , give the reported MIC Enterococcus faecalis (ATCC 29212).
64

Could you do the same for CC(c1ccccc1)C1NC(=O)CNC(=O)C(CO)NC(=O)C(C(O)C2CNC(=N)N2C2OC(CO)C(O)C(O)C2O)NC(=O)C(C(O)C2CNC(=N)N2)NC(=O)C(Cc2ccc3oc(-c4ccc(Br)cc4)nc3c2)NC1=O (centres unmarked) [Example 27] , please?
32

Could you do the same for CC(c1ccccc1)C1NC(=O)CNC(=O)C(CO)NC(=O)C(C(O)C2CNC(=N)N2C2OC(CO)C(O)C(O)C2O)NC(=O)C(C(O)C2CNC(=N)N2)NC(=O)C(Cc2ccc3oc(C=C(c4ccccc4)c4ccccc4)nc3c2)NC1=O (centres unmarked) [Example 39] , please?
16

Could you do the same for CC(c1ccccc1)C1NC(=O)CNC(=O)C(CO)NC(=O)C(C(O)C2CNC(=N)N2C2OC(CO)C(O)C(O)C2O)NC(=O)C(C(O)C2CNC(=N)N2)NC(=O)C(Cc2ccc3oc(SCC(=O)c4ccccc4)nc3c2)NC1=O (centres unmarked) [Example 48] , please?
64

Could you do the same for CC(c1ccccc1)C1NC(=O)CNC(=O)C(CO)NC(=O)C(C(O)C2CNC(=N)N2C2OC(CO)C(O)C(O)C2O)NC(=O)C(C(O)C2CNC(=N)N2)NC(=O)C(Cc2ccc3oc(SCc4ccc(-c5ccccc5)cc4)nc3c2)NC1=O (centres unmarked) [Example 47] , please?
8

Could you do the same for COc1ccc(Oc2cccc(-c3nc4cc(CC5NC(=O)C(C(C)c6ccccc6)NC(=O)CNC(=O)C(CO)NC(=O)C(C(O)C6CNC(=N)N6C6OC(CO)C(O)C(O)C6O)NC(=O)C(C(O)C6CNC(=N)N6)NC5=O)ccc4o3)c2)cc1 (centres unmarked) [Example 35] , please?
16

Could you do the same for CC(c1ccccc1)C1NC(=O)CNC(=O)C(CO)NC(=O)C(C(O)C2CN(Cc3ccc(-c4ccccc4)cc3)C(=N)N2C2OC(CO)C(O)C(O)C2O)NC(=O)C(C(O)C2CNC(=NCc3ccc(-c4ccccc4)cc3)N2Cc2ccc(-c3ccccc3)cc2)NC(=O)C(Cc2ccc(OC3OC(CO)C(OC4OC(CO)C(O)C(O)C4O)C(O)C3O)cc2)NC1=O (centres unmarked) [Example 66] , please?
16

Could you do the same for CC(c1ccccc1)C1NC(=O)CNC(=O)C(CO)NC(=O)C(C(O)C2CNC(=N)N2C2OC(CO)C(O)C(O)C2O)NC(=O)C(C(O)C2CNC(=N)N2)NC(=O)C(Cc2ccc3oc(SCc4ccccc4)nc3c2)NC1=O (centres unmarked) [Example 45] , please?
32

---

System: Staphylococcus sp.
Assay: In vitro antibacterial evaluation: minimum inhibitory concentration (MIC), broth dilution method
Assay type: cell-based
Settings: Coagulase Negative Staphylococcus (GC 4548); 18 hours at 35° C.
Give MIC Coagulase Negative Staphylococcus (GC 4548) for every item shown.
Output spec: scalar in µg/mL, unitless text.

For the molecule shown here, CC(=O)OCC1OC(OC2C(CO)OC(Oc3ccc(CC4NC(=O)C(C(C)c5ccccc5)NC(=O)CNC(=O)C(CO)NC(=O)C(C(O)C5CNC(=N)N5C5OC(CO)C(O)C(O)C5O)NC(=O)C(C(O)C5CNC(=N)N5)NC4=O)cc3)C(O)C2O)C(O)C(OC(=O)CCC(C)C)C1O (centres unmarked) [Example 270b] , give the reported MIC Coagulase Negative Staphylococcus (GC 4548).
4

Could you do the same for CC(C)CC(=O)OC1C(O)C(CO)OC(OC2C(CO)OC(Oc3ccc(CC4NC(=O)C(C(C)c5cccs5)NC(=O)CNC(=O)C(CO)NC(=O)C(C(O)C5CNC(=N)N5C5OC(CO)C(O)C(O)C5O)NC(=O)C(C(O)C5CNC(=N)N5)NC4=O)cc3)C(O)C2O)C1O (centres unmarked) [Example 265b] , please?
4

Could you do the same for CC(c1ccccc1)C1NC(=O)CNC(=O)C(CO)NC(=O)C(C(O)C2CNC(=N)N2C2OC(CO)C(O)C(O)C2O)NC(=O)C(C(O)C2CNC(=N)N2)NC(=O)C(Cc2ccc(OC3OC(CO)C(OC4OC(CO)C(OCC=C(c5ccccc5)c5ccccc5)C(O)C4O)C(O)C3O)cc2)NC1=O (centres unmarked) [Example 241a] , please?
2

Could you do the same for CCC(C)C(=O)OC1C(CO)OC(OC2C(CO)OC(Oc3ccc(CC4NC(=O)C(C(C)c5ccccc5)NC(=O)CNC(=O)C(CO)NC(=O)C(C(O)C5CNC(=N)N5C5OC(CO)C(O)C(O)C5O)NC(=O)C(C(O)C5CNC(=N)N5)NC4=O)cc3)C(O)C2O)C(O)C1O (centres unmarked) [Example 278c] , please?
2
